# Experiment: Cellular toxicity in MRC5 cells
# Applied conditions: human, MRC-5 cells
Property: CC50 at 72 h

Q) Consider the molecule CCOC(=O)CNC(=O)NC1CCc2ccc(N)cc21 (stereo not shown) and give its measured CC50 at 72 h.
A) > 100 µM

----------
# Measured on: CYP3A4 (Homo sapiens, UniProt P08684)
# Construct: incubated with human hepatic microsomal fractions and NADPH; from tissue; host or cells: human hepatic microsomal fractions
# Sequence (P08684 2-503): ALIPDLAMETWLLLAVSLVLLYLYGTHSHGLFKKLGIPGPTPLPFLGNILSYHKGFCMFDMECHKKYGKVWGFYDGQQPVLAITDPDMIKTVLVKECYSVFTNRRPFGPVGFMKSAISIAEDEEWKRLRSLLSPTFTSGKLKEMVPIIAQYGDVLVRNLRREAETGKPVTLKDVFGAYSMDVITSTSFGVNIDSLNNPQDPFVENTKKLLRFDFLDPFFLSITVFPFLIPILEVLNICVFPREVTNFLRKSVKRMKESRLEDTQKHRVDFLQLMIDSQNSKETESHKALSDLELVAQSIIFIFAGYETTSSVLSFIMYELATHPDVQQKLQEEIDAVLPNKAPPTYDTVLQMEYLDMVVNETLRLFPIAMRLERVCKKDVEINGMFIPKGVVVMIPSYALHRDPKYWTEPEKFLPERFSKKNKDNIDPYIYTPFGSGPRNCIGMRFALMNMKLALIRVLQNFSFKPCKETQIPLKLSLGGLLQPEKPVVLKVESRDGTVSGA
# Experiment: Cytochrome P450 enzyme inhibition assay, CYP3A4
# Format: in vitro ADME
# Applied conditions: human hepatic microsomal fractions, up to 25 μM
Property: IC50 (nM)
Give the value in nM but do not write nM after it.

Q) Consider the compound CSCCC(NC(=O)NCc1ccc(N)cc1)C(=O)N1CCCC1c1ccccc1SC.O=C(O)C(F)(F)F (stereo not shown) [Compound 30] and give its measured IC50.
A) 600
